// provenance: the kinase profiling compilation of Christmann-Franck et al. (2016)

# target under test: CLK4 (human)
# experiment summary: KINOMEscan competition binding
# measurement context: compound 10.0 µM
observable: kinase still bound, per cent of control (%)

compound: COc1ccc(N(C(=O)Oc2cc(C(=O)Nc3cccc(C(F)(F)F)c3)ccc2C)c2ccnc(Nc3ccc(N4CCN(C)CC4)cc3)n2)c(OC)c1
observable: kinase still bound, per cent of control
unit symbol: %
measured number: 100
//
compound: CNC(=O)Nc1ccc(-c2nc(N3CC4CCC(C3)O4)c3cnn(C4CCC5(CC4)OCCO5)c3n2)cc1
observable: kinase still bound, per cent of control
unit symbol: %
measured number: 88
//
compound: CC1=C(C(=O)Nc2cc3cn[nH]c3cc2F)C(c2ccc(C(F)(F)F)cc2)CC(=O)N1 (centres undefined)
observable: kinase still bound, per cent of control
unit symbol: %
measured number: 100
//
compound: COc1cc2c(Nc3ccc(NC(=O)c4ccccc4)cc3)ncnc2cc1OCCCN1CCOCC1
observable: kinase still bound, per cent of control
unit symbol: %
measured number: 100
